# Test system: SK-OV-3 ovarian
# experimental-protocol: NCI-60 one-dose screen, 48 h
# test-conditions: 10 µM unless noted
About 83,000 compounds went through this panel and 20% of them were active in at least one assay; those are over-represented in the sample as a whole. Active and inactive are the calls of the source. Rule for the calls: active = growth percent below 10; inactive = the rest.
Give one outcome, nothing more. List: active, inactive

[in] What classification did C[C@]12CCc3nc(Nc4ccccc4F)sc3C1=CC[C@@H]1[C@@H]2CC[C@]2(C)C(=O)CC[C@@H]12 end up with in this test?
[out] inactive

[in] What classification did COc1ccc(/C(C)=C(\c2ccc(OCCN3CCOCC3)cc2)c2ccc(OC(=O)Cc3ccccc3)cc2)cc1 end up with in this test?
[out] inactive

[in] What classification did N#C[Se]CCN1C(=O)c2ccccc2C1=O end up with in this test?
[out] inactive

[in] What classification did COC(=O)[C@@H](C)C[C@H](Cc1ccccc1)NC(=O)c1csc([C@@H](C[C@H](C(C)C)N(C)C(=O)C2(NC(=O)[C@H]3CCCCN3C)CCC2)OC(C)=O)n1 end up with in this test?
[out] inactive

[in] What classification did Fc1ccc2c(c1)c(-c1nc(-c3c[nH]c4ncccc34)cs1)cn2CCN1CCOCC1 end up with in this test?
[out] inactive

[in] What classification did COC(=O)[C@@H](C)C[C@H](Cc1ccccc1)NC(=O)c1nc([C@@H](C[C@H](C(C)C)N(C)C(=O)[C@@H](NC(=O)[C@H]2CCCN2C)C(C)C)OC(C)=O)sc1C end up with in this test?
[out] active

[in] What classification did CCCCCCCC[n+]1ccc2ccccc2c1 end up with in this test?
[out] inactive

[in] What classification did C/C(=C\c1ccn(-c2ccc(N)cc2C(F)(F)F)n1)[C@@H]1C[C@@H]2O[C@]2(C)CCC[C@H](C)[C@H](O)[C@@H](C)C(=O)C(C)(C)[C@@H](O)CC(=O)O1 end up with in this test?
[out] active

====

# Test system: HOP-92 NSCLC
# experimental-protocol: NCI-60 one-dose screen, 48 h (100 = growth as untreated, 0 = no growth, -100 = all killed)
# test-conditions: 10 µM unless noted
The panel holds about 83,000 compounds, 20% with a hit somewhere; the sample as a whole holds those more often. Calls of active or inactive are those of the source. The calls were made as follows: active = growth percent below 10; inactive = the rest.
parameter-measured: growth

[in] Please tell me: growth of C[C@@H]1C[C@@]2(C)[C@@H](CC[C@@H]3[C@@H]2CC[C@]2(C)C(=O)CC[C@@H]32)CC1=O , system HOP-92 NSCLC?
[out] 71.7% (inactive)

[in] Please tell me: growth of COC(=O)CCC1=C(C)c2cc3[n-]c(cc4nc(cc5[n-]c(cc1n2)c(CCC(=O)OC)c5C)C=C4C)cc3C.[Cd+2] , system HOP-92 NSCLC?
[out] 3.42% (active)

[in] Please tell me: growth of Fc1ccc(C2=CCNCC2)cc1 , system HOP-92 NSCLC?
[out] 119% (inactive)

[in] Please tell me: growth of C=CCn1cc(C=C2C(=O)N(C)C(=O)N(C)C2=O)c2ccccc21 , system HOP-92 NSCLC?
[out] 91.2% (inactive)

[in] Please tell me: growth of Cc1cc(N(CCCl)CCCl)ccc1C=Nc1ccc(-c2csc(Cc3ccccc3)n2)cc1 , system HOP-92 NSCLC?
[out] 47.5% (inactive)

[in] Please tell me: growth of COc1cccc(C=NC(Cc2cnc[nH]2)C(=O)O)c1O (centres undefined) , system HOP-92 NSCLC?
[out] 56% (inactive)

[in] Please tell me: growth of N#CCCNc1ccccc1 , system HOP-92 NSCLC?
[out] 94.9% (inactive)

[in] Please tell me: growth of O=Cc1cn(Cc2ccc(Cl)cc2)c2ccccc12 , system HOP-92 NSCLC?
[out] 76.4% (inactive)

[in] Please tell me: growth of CC(=O)OC1CCC2(C)C(CCC3C2CC(=O)C2(C)C3CC(Sc3ccc(N(CCCl)CCCl)cc3)C2C(C)=O)C1 (centres undefined) , system HOP-92 NSCLC?
[out] 109% (inactive)

[in] Please tell me: growth of O=C([O][Hg][c]1ccccc1)c1ccccc1 , system HOP-92 NSCLC?
[out] -61.3% (active)

[in] Please tell me: growth of CN(C)C1C(=O)C(C(N)=O)=C(O)C2(O)C(=O)C3=C(O)c4c(O)cccc4C(C)(O)C3CC12.[Cl][Sb]([Cl])[Cl] (centres undefined) , system HOP-92 NSCLC?
[out] -5.57% (active)

[in] Please tell me: growth of Cn1cc(-c2csc(-c3cn(CCCCN4CCCCC4)c4ccccc34)n2)c2cccnc21 , system HOP-92 NSCLC?
[out] 46.3% (inactive)

[in] Please tell me: growth of OCCNC(Cc1ccccc1)c1ccc2c(c1)OCO2 (centres undefined) , system HOP-92 NSCLC?
[out] 73.1% (inactive)

[in] Please tell me: growth of CC(=O)O[C@@H]1CC[C@]2(C)[C@H]3CC[C@]4(C)C(=O)CC[C@H]4[C@@H]3C[C@@H]3SC(N)=N[C@@]32C1 , system HOP-92 NSCLC?
[out] 78.8% (inactive)

[in] Please tell me: growth of NC(N)=N/N=C\c1c[nH]c2ccc(Br)cc12 , system HOP-92 NSCLC?
[out] 37.9% (inactive)

[in] Please tell me: growth of O=C1CN=C(c2ccc(Cl)cc2)c2sccc2N1 , system HOP-92 NSCLC?
[out] 97.4% (inactive)

[in] Please tell me: growth of Cn1cc(-c2csc(-c3cn(CCN4CCOCC4)c4ccccc34)n2)c2cccnc21 , system HOP-92 NSCLC?
[out] 48.6% (inactive)

[in] Please tell me: growth of COC(=O)[C@@H](C)C[C@H](Cc1ccc(F)cc1)NC(=O)c1csc([C@@H](C[C@H](C(C)C)N(C)C(=O)[C@@H](NC(=O)[C@H]2CCCCN2C)C(C)C)OC(C)=O)n1 , system HOP-92 NSCLC?
[out] 26.7% (inactive)

[in] Please tell me: growth of COC(=O)[C@@H](C)C[C@H](Cc1ccccc1)NC(=O)c1csc([C@@H](C[C@H](C(C)C)N(C)C(=O)[C@H](C)NC(=O)[C@H]2CCCN2C)OC(C)=O)n1 , system HOP-92 NSCLC?
[out] 37.6% (inactive)

====

# System: MCF7 breast
# experimental-protocol: NCI-60 one-dose screen, 48 h
# test-conditions: 10 µM unless noted
This is part of a sample that, as a whole, favours compounds with a hit. Of some 83,000 tested, about 20% had one in any assay. Calls of active or inactive are those of the source. Rule for the calls: active = growth percent below 10; inactive = the rest.
Give one outcome, nothing more. List: yes (1) (active), no (0) (inactive)

[in] What classification did CC[C@H](C)[C@H](NC(=O)[C@H]1CCCCN1C)C(=O)N(C)[C@H](C[C@@H](O)c1nc(C(=O)N[C@@H](Cc2ccccc2)C[C@H](C)C(=O)O)cs1)C(C)C end up with in this test?
[out] no (0)

[in] What classification did COC[C@@H]1C[C@@]2(C)[C@@H](CC[C@@H]3[C@@H]2CC[C@@]2(C)[C@H]3CC[C@]2(C)O)CC1=O end up with in this test?
[out] no (0)

[in] What classification did COC(=O)[C@@H](C)C[C@H](Cc1ccccc1)NC(=O)c1csc([C@@H](C[C@H](C(C)C)N(C)C(=O)[C@@H](NC(=O)CN(C)C)C2CC2)OC(C)=O)n1 end up with in this test?
[out] no (0)

[in] What classification did COC(=O)CC[C@H](Cc1ccccc1)NC(=O)c1csc([C@@H](C[C@H](C(C)C)N(C)C(=O)[C@@H](NC(=O)[C@H]2CCCCN2C)C(C)C)OC(C)=O)n1 end up with in this test?
[out] no (0)

[in] What classification did C1CCC([PH+](C2CCCCC2)C2CCCCC2[PH+](C2CCCCC2)C2CCCCC2)CC1.O=C(C1[CH-]CCCC1)C1CCCC[N-]1.[Au] (configuration not stated) end up with in this test?
[out] yes (1)

[in] What classification did O=C(Nc1ccc(Br)cc1)c1cc(Br)cc(Br)c1O end up with in this test?
[out] yes (1)

[in] What classification did Cc1cc(N(CCCl)CCCl)ccc1/C=N\NC(=O)c1ccncc1 end up with in this test?
[out] no (0)

====

# Tested on: TK-10 renal
# experimental-protocol: NCI-60 one-dose screen, 48 h (100 = growth as untreated, 0 = no growth, -100 = all killed)
# test-conditions: 10 µM unless noted
Compounds without any hit were thinned out: in the full panel of roughly 83,000, 20% have a hit.
# label = Condition met if growth >= 40% else Condition not met

[in] Please tell me: is the compound CC(=O)[O][Hg][O]C(C)=O at or over 40% in terms of growth?
[out] Condition met

[in] Please tell me: is the compound CC[C@H](C)[C@H](NC(=O)C12C3C4C1C1C2C3C41NC)C(=O)N(C)[C@H](C[C@@H](OC(C)=O)c1nc(C(=O)N[C@@H](Cc2ccccc2)C[C@H](C)C(=O)OC)cs1)C(C)C (some centres undefined) at or over 40% in terms of growth?
[out] Condition met

[in] Please tell me: is the compound Fc1ccc(N2COOC3(OOC2)C2CC4CC(C2)CC3C4)cc1 at or over 40% in terms of growth?
[out] Condition met

[in] Please tell me: is the compound COc1cc(/C=C/[N+](=O)[O-])c([N+](=O)[O-])cc1OC at or over 40% in terms of growth?
[out] Condition not met

[in] Please tell me: is the compound Cc1cc(N(CCCl)CCCl)ccc1C=Nc1cccnc1 at or over 40% in terms of growth?
[out] Condition met

[in] Please tell me: is the compound CN1CC(=O)N(O)C1(C)c1cccnc1 (centres undefined) at or over 40% in terms of growth?
[out] Condition met

[in] Please tell me: is the compound OCc1ccc2c(c1)OCO2 at or over 40% in terms of growth?
[out] Condition met

[in] Please tell me: is the compound CCCCCC1(CCBr)C(=O)NC(=O)NC1=O at or over 40% in terms of growth?
[out] Condition met

[in] Please tell me: is the compound Oc1ccc2c3c1OC1[C@@H](O)CC[C@@]4(O)[C@@H](C2)N(CC2CCC2)CC[C@]314 (some centres undefined) at or over 40% in terms of growth?
[out] Condition met

[in] Please tell me: is the compound CN(C)C(=O)Oc1ccccc1-c1ccccc1 at or over 40% in terms of growth?
[out] Condition met

[in] Please tell me: is the compound CC12CCC3C(C=CC4=C(N)C(=O)CCC43C)C1CCC2=O (centres undefined) at or over 40% in terms of growth?
[out] Condition met

[in] Please tell me: is the compound O=C(c1ccccc1O)c1[nH]c(Cl)c(Cl)c1-n1c(C(=O)c2ccccc2O)cc(Cl)c1Cl at or over 40% in terms of growth?
[out] Condition not met

[in] Please tell me: is the compound CC1=C([Te]c2ccc(O)cc2)C(=O)c2ccccc2C1=O at or over 40% in terms of growth?
[out] Condition not met

[in] Please tell me: is the compound C=CCn1cc(C=C2C(=O)N(C)C(=O)N(C)C2=O)c2ccccc21 at or over 40% in terms of growth?
[out] Condition met

[in] Please tell me: is the compound O=C(O)CNC(=O)C(Cl)(Cl)Cl at or over 40% in terms of growth?
[out] Condition met

[in] Please tell me: is the compound CC(=O)O[C@H](C[C@H](C(C)C)N(C)C(=O)[C@@H](NC(=O)[C@H]1CCCCN1C)C(C)C)c1nc(C(=O)N[C@@H](Cc2ccccc2)C[C@H](C)C(=O)O)c(C(C)C)s1 at or over 40% in terms of growth?
[out] Condition met

[in] Please tell me: is the compound Fc1c[c-]c(-c2ccccn2)c(F)c1.[CH3-].[Pt+2].c1ccc([PH+](c2ccccc2)c2ccccn2)cc1 at or over 40% in terms of growth?
[out] Condition not met

[in] Please tell me: is the compound O=C(CC1(O)C(=O)N(Cc2ccccc2)c2ccc(Cl)cc21)c1ccc(C(=O)NCC2CCC3(CC2)OOC2(CCCCC2)OO3)cc1 (centres undefined) at or over 40% in terms of growth?
[out] Condition not met
